Test system: K-562 leukemia
MEASUREMENT_PROTOCOL: NCI tumour cell line growth inhibition, 48 h
I'd appreciate it if you could supply TGI values for the items below.

Would you please look over these solved cases?
Short answer for `O=C(CSc1ncnc2nc[nH]c12)c1ccccc1` : TGI was > 100 µM

Short answer for `CC1=C(Cc2ccccc2)C(Cc2ccccc2)=C(C)S1=O` : TGI was > 100 µM

Short answer for CC[C@H](C)[C@H]1NC(=O)[C@@H](NC(=O)[C@@H](CC(C)C)N(C)C(=O)C2CCCN2C(=O)[C@H](C)O)[C@@H](C)OC(=O)[C@@H]2Cc3ccccc3CN2C(=O)[C@@H]2CCCN2C(=O)[C@H](CC(C)C)NC(=O)[C@@H](C)C(=O)[C@H](C(C)C)OC(=O)C[C@@H]1O (stereo partly specified) : TGI was > 41.2 µM

Short answer for O=C1CSC(c2ccc([N+](=O)[O-])cc2)N1c1nc(-c2ccc3c(c2)CCCC3)cs1 (stereo unspecified) : TGI was > 100 µM

Short answer for `COc1cc2nc3c(=C(C#N)C#N)c4ccccc4n3c(=O)c2cc1OC` : TGI was > 100 µM

Answer for every listed entry: what is its TGI? The entries follow.
1. Nc1nc2ccc(NCc3ccc(C(=O)NC(CCC(=O)O)C(=O)O)cc3)cc2c(=O)[nH]1 (stereo unspecified)
2. O=P1(N(CCCl)CCCl)Oc2ccc(Cl)cc2Sc2c(ccc(Cl)c2Cl)O1 (stereo unspecified)
3. CC(=O)OCCn1c(Cc2ccc(C)cc2)nn(C(C)=O)c1=O
4. O=C1CCCC/C1=C(\Br)I
5. COc1cc(COC(=O)N2CSCC2C(=O)O)c([N+](=O)[O-])cc1OC (stereo unspecified)
6. CC1(C)COP(=S)(c2ccccn2)O[C@@H]1c1ccccc1 (stereo partly specified)

Data returned:
1: > 100 µM; 2: > 100 µM; 3: > 100 µM; 4: 10.3 µM; 5: > 100 µM; 6: > 100 µM

* * *

Test system: CCRF-CEM leukemia
MEASUREMENT_PROTOCOL: NCI tumour cell line growth inhibition, 48 h
I'd appreciate it if you could supply TGI values for the items below.

Short answer for CC(CO)CCNc1ncnc2c1ncn2CCC#N (stereo not drawn) : TGI was > 100 µM

Short answer for `Oc1ccc[n+](Cc2ccccc2)c1` : TGI was > 100 µM

API: the following record is the query input.
Short answer for `O=C(CSc1ncnc2nc[nH]c12)c1ccccc1` : TGI was > 100 µM

* * *

Test system: OVCAR-4 ovarian
MEASUREMENT_PROTOCOL: NCI tumour cell line growth inhibition, 48 h
PARAMETER_MEASURED: TGI

Would you please look over these solved cases?
Short answer for `COc1ccc([C@H]2CC(=O)C[C@H](c3ccc(OC)cc3OC)C23C(=O)c2ccccc2C3=O)c(OC)c1` : TGI was > 100 µM

Short answer for `OCn1nc2c(C3OCCO3)cc3ccccc3n2c1=S` : TGI was > 100 µM

Short answer for CCOC(=O)C(C)c1nc2cc3cccnc3c(Cl)c2[nH]c1=O (stereo not drawn) : TGI was > 100 µM

Short answer for `Cc1n[nH]c(=S)n1/N=C/c1ccc(-c2ccc(Cl)cc2)o1` : TGI was > 100 µM

Short answer for `Cn1c(=O)c2[nH]c(CSCc3ccccc3)nc2n(C)c1=O` : TGI was > 100 µM

Answer for every listed entry: what is its TGI? The entries follow.
1. C[C@]12CC[C@H]3[C@@H](CCC4=C[C@@H](N5CCCC5)CC[C@@]43C)[C@@H]1C/C(=C\c1ccncc1)[C@@H]2O
2. C=CC(C)c1cccc(C=O)c1O (stereo not drawn)
3. O=S(=O)(SCCCCSS(=O)(=O)c1ccc(Cl)cc1)c1ccc(Cl)cc1

Data returned:
75.8 µM
> 100 µM
33.5 µM
